# Test description: NCI Yeast Anticancer Drug Screen. Data for the CLN2oe strain (AID 163);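 also: 0% = growth of vehicle-only control cultures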
# Protocol conditions: S. cerevisiae CLN2oe strain, at 11.0 µM, hits give high values
This is part of a sample that, as a whole, favours compounds with a hit. Of some 79,000 tested, about 15% had one in any assay.

>  <Compound>
O=C(Nc1cccc(C(F)(F)F)c1)Oc1ccc(Cl)cc1C(=O)c1ccccc1

>  <growth inhibition (%)>
74

$$$$
>  <Compound>
Cc1ccc(N=Nc2ccc(O)c(C)c2)cc1

>  <growth inhibition (%)>
97

$$$$
>  <Compound>
Cc1cccc(/C=N\NC(=S)N2CCCCC2)n1

>  <growth inhibition (%)>
98

$$$$
>  <Compound>
c1ccc2c(c1)Cn1c-2nc2ccccc21

>  <growth inhibition (%)>
-23

$$$$
>  <Compound>
Nc1nc2c(c(=O)[nH]1)NC(CCNc1ccc(C(=O)O)cc1)CN2 (stereo unspecified)

>  <growth inhibition (%)>
-3

$$$$
>  <Compound>
CN(C)c1ccc(/C=C/c2ccnc3ccccc23)cc1N

>  <growth inhibition (%)>
-19

$$$$

###

# Test description: NCI Yeast Anticancer Drug Screen. Data for the rad50EPP+ strain (AID 151);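 also: 0% = growth of vehicle-treated control cultures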
# Protocol conditions: S. cerevisiae rad50 mutant strain, at 3.7 µM, hits give high values
# Procedure: Growth inhibition of yeast strains with defined genetic alterations is measured as a screen for potential anti-cancer activity. Selected strains with alterations in DNA damage repair or cell cycle control were exposed to compounds and growth inhibition was measured relative to vehicle treated controls. The strain used in this assay is rad50EPP+
Compounds without any hit were thinned out: in the full panel of roughly 79,000, 15% have a hit.
Here the recorded growth inhibition is given for each entry.

>  <Molecule>
Cc1cc(O)c2c(c1O)C(=O)C13C(=C2O)C(=O)C2C(O)C1C1C(O)C3C(=O)C3=C(O)c4c(O)cc(C)c(O)c4C(=O)C321 (centres undefined)

>  <Output unit>
%

>  <growth inhibition>
3

$$$$
>  <Molecule>
CC(=O)N1C(=O)/C(=C\C(=O)c2ccc(Cl)cc2)c2ccccc21

>  <Output unit>
%

>  <growth inhibition>
12

$$$$
>  <Molecule>
CN(NC(=O)/C(=C/c1ccc(O)cc1)NC(=O)c1ccccc1)c1ccnc2cc(Cl)ccc12

>  <Output unit>
%

>  <growth inhibition>
3

$$$$
>  <Molecule>
[N-]=[N+]=NC(c1ccccc1)(c1ccccc1)c1ccccc1

>  <Output unit>
%

>  <growth inhibition>
15

$$$$
>  <Molecule>
CCCCCCCCCCCCCCCCNC(=O)/C(=C\c1ccc(Cl)c(Cl)c1)NC(=O)c1ccccc1

>  <Output unit>
%

>  <growth inhibition>
6

$$$$
>  <Molecule>
Cc1c(-c2ccccc2)[nH]c2ccccc12

>  <Output unit>
%

>  <growth inhibition>
20

$$$$
>  <Molecule>
Cc1c2cc[n+](CCN3CCCCC3)cc2c(C)c2c1[nH]c1ccc(O)cc12

>  <Output unit>
%

>  <growth inhibition>
16

$$$$
>  <Molecule>
COc1ccc2c(c1)[nH]c1c(/C=C/c3ccccc3)nccc12

>  <Output unit>
%

>  <growth inhibition>
7

$$$$
>  <Molecule>
CC(=O)[C@]1(O)Cc2c(O)c3c(c(O)c2[C@@H](OC2CC(N)C(O)C(C)O2)C1)C(=O)c1c(OCc2ccccc2)cccc1C3=O (some centres undefined)

>  <Output unit>
%

>  <growth inhibition>
21

$$$$
